Assay: Approximate solubility at room temperature in various solvents
Format: physicochemical
Conditions: organic solvent or mixture, MeOH
observation_type: solubility

molecule: Cc1cc2ncc(-c3ccc(OC(C)(C)C)cc3)n2cc1-c1ccc(OC(C)C)cc1 [Polymorphic Form A of Compound 1]
observation_type: solubility
recorded_measurement: > 48 mg/mL

###

Molecular target: UniProt:P21554
Sequence (P21554 whole entry): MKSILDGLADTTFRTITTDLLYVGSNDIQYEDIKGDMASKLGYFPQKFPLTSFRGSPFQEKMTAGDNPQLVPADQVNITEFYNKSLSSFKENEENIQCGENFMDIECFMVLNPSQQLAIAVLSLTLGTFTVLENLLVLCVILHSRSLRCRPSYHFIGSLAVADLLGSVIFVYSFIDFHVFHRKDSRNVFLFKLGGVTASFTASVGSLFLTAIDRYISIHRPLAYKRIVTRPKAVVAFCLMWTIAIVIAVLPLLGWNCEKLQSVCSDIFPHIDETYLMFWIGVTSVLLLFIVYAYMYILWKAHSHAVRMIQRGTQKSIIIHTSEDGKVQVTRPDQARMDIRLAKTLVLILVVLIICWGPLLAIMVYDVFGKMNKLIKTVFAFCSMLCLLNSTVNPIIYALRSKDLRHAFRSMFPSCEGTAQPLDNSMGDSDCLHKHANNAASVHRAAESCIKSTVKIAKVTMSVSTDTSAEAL
Test: CB1R Human Cannabinoid GPCR Cell Based Antagonist cAMP Assay (HTRF, CHO-K1 cells, CP55940 EC80)
Conditions: antagonist mode, CP55940 EC80, 20 uM forskolin, read-out: IC50 functional activity of CB1R
Procedure: CB1R Human Cannabinoid GPCR Cell Based Antagonist cAMP Assay Evaluation of the potency (IC50) of Compound 1 for the human CB1R in stably transfected CHO-K1 cells was determined in a cAMP cell based assay using HTRF detection method. Cells were seeded in a total volume of 20 μL into white walled, 384-well microplates and incubated at 37 °C overnight prior to testing. […] The results are expressed as a percent inhibition of CP55940 in antagonist mode.
observation_type: IC50 (µM)

smiles_text: Cc1cc2ncc(-c3ccc(OC(C)(C)C)cc3)n2cc1-c1ccc(OC(C)C)cc1
observation_type: IC50
recorded_measurement: 3.8

###

Assay: Approximate solubility at room temperature in various solvents
Type: physicochemical
Conditions: organic solvent or mixture, 2 butanol

molecule: Cc1cc2ncc(-c3ccc(OC(C)(C)C)cc3)n2cc1-c1ccc(OC(C)C)cc1 [Polymorphic Form A of Compound 1]
solubility: > 54 mg/mL

###

Assay: Approximate solubility at room temperature in various solvents
Assay type: physicochemical
Conditions: organic solvent or mixture, Isopropanol

molecule: Cc1cc2ncc(-c3ccc(OC(C)(C)C)cc3)n2cc1-c1ccc(OC(C)C)cc1 [Polymorphic Form A of Compound 1]
solubility: > 52 mg/mL

###

Assay: Approximate solubility at room temperature in various solvents
Format: physicochemical
Details: organic solvent or mixture, DMSO

compound: Cc1cc2ncc(-c3ccc(OC(C)(C)C)cc3)n2cc1-c1ccc(OC(C)C)cc1 [Polymorphic Form A of Compound 1]
solubility: 8 to 24 mg/mL

###

Assay: Solubility in water and biorelevant media
Assay type: physicochemical
Settings: FeSSIF, room temperature, pH 5.07

compound: Cc1cc2ncc(-c3ccc(OC(C)(C)C)cc3)n2cc1-c1ccc(OC(C)C)cc1 [Polymorphic Form A of Compound 1]
measurement_units: µg/mL
solubility at 24 h: 224

###

Assay: Approximate solubility at room temperature in various solvents
Format: physicochemical
Conditions: water, H2O

compound: Cc1cc2ncc(-c3ccc(OC(C)(C)C)cc3)n2cc1-c1ccc(OC(C)C)cc1 [Polymorphic Form A of Compound 1]
solubility: < 2400 µg/mL

###

Assay: Approximate solubility at room temperature in various solvents
Assay type: physicochemical
Settings: organic solvent or mixture, 1-4-dioxane

compound: Cc1cc2ncc(-c3ccc(OC(C)(C)C)cc3)n2cc1-c1ccc(OC(C)C)cc1 [Polymorphic Form A of Compound 1]
solubility: > 60 mg/mL

###

Test: Approximate solubility at room temperature in various solvents
Assay type: physicochemical
Conditions: organic solvent or mixture, 1-Butanol

molecule: Cc1cc2ncc(-c3ccc(OC(C)(C)C)cc3)n2cc1-c1ccc(OC(C)C)cc1 [Polymorphic Form A of Compound 1]
solubility: > 60 mg/mL

###

Assay: Approximate solubility at room temperature in various solvents
Type: physicochemical
Details: organic solvent or mixture, 2-MeTHF

compound: Cc1cc2ncc(-c3ccc(OC(C)(C)C)cc3)n2cc1-c1ccc(OC(C)C)cc1 [Polymorphic Form A of Compound 1]
solubility: > 56 mg/mL

###

Test: Approximate solubility at room temperature in various solvents
Format: physicochemical
Conditions: organic solvent or mixture, MTBE

molecule: Cc1cc2ncc(-c3ccc(OC(C)(C)C)cc3)n2cc1-c1ccc(OC(C)C)cc1 [Polymorphic Form A of Compound 1]
solubility: 28 to 56 mg/mL

###

Experiment: Approximate solubility at room temperature in various solvents
Assay type: physicochemical
Settings: organic solvent or mixture, MEK
observation_type: solubility

compound: Cc1cc2ncc(-c3ccc(OC(C)(C)C)cc3)n2cc1-c1ccc(OC(C)C)cc1 [Polymorphic Form A of Compound 1]
recorded_measurement: > 52 mg/mL

###

Assay: Solubility in water and biorelevant media
Format: physicochemical
Conditions: Water, room temperature, pH 6.63

compound: Cc1cc2ncc(-c3ccc(OC(C)(C)C)cc3)n2cc1-c1ccc(OC(C)C)cc1 [Polymorphic Form A of Compound 1]
solubility at 24 h: < 12.5 µg/mL

FYI, the data here is from patent US20260374769A1.
